experimental-system: T1, cSIRPαV2D1 with histidine tag (cynomolgus monkey (Macaca fascicularis), UniProt Q5TFQ8 30-146 (human entry))
T1 construct: also called cynomolgus monkey SIRPαV2D1; not shown: histidine tag
T1 chain: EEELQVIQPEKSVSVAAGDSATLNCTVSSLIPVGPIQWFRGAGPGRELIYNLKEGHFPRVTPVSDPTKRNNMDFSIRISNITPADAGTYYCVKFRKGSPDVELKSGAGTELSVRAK
test-protocol: SPR (Biacore 3000), IgG captured on anti-human IgG, His-tagged D1 analyte
measured-parameter: Kd (nM)
Just the number in nM, nothing appended.

# query: Kd of entry Ab1_G2 (antibody, human IgG2, V domains shown) VH: EVQLVESGGGLVKPGGSLRLSCAASGFTFSSYVMSWVRQTPGKGLEWVATISSGGTYTYYPSSVKGRFTLSRDNAKNSLYLQMNSLRAEDTAVYYCASSLTGSSFDYWGQGTTVTVSS VL: DIVLTQSPASLAVSLGERATISCRASESVDLYGTSFMHWYQQKPGQPPKLLIYRASNLESGVPDRFSGSGSRTDFTLTINPLQAEDVATYYCHQSSDELPWTFGGGTKVEIKR 287
